# test-details: basal MM1S mitochondrial membrane potential changes, profiling panel, cell-based, JC-1 fluorescence, 24 h, 100 nL compound (AID 1170); also: test concentration not given here
# assay-context: higher = more signal
Binning of z-score into classes: c1 (below -0.5), c2 (-0.5 to below 0.03), c3 (0.03 or more)

Previously resolved entries follow.
CC(=O)OC[C@H]1O[C@@H](ON=C(C)CCN2CCc3nc(-c4ccccc4)c(-c4ccccc4)cc3C2)[C@H](OC(C)=O)[C@@H](OC(C)=O)[C@@H]1OC(C)=O ... c3
O=C1CCCC2OC12C(O)CCc1ccccc1 (stereo unspecified) ... c3
CO[C@@H]1COC(=O)CC=C[C@@H](C)[C@@H]2C=C[C@H](O)[C@@H](COC(=O)CCC[C@H]1C)O2 ... c1
COC(=O)CC=C[C@@H](C)[C@H](OC)c1ccccc1Br ... c1
CC(CCN1CCc2nc(-c3ccccc3)c(-c3ccccc3)cc2C1)=NOC(C)CN1CCCCc2nc(C)c(C)cc21 (stereo unspecified) ... c3
CC(C)[C@@H](OCc1ccccc1)[C@H](C)C=NOC[C@@H](C)[C@H](OCc1ccccc1)C(C)C ... c2
COc1ccc(O[C@H]2C=C[C@@H](c3ccccc3)O[C@@H]2COC(=O)N2CCCCC2)cc1 ... c3
CN1C(=O)C2C=CC(C(O)c3ccc(I)cc3)N(NC(=O)OC(C)(C)C)C2C1=O (stereo unspecified) ... c3
CCOC(=O)[C@H](CC(C)C)NC(=O)CCC1CC(OC(=O)NCc2cccc3ccccc23)CC2(CCCC(COC(=O)NCCN3CCOCC3)O2)O1 (stereo partly specified) ... c2
COc1ccc(O[C@H]2C=C[C@@H](c3ccccc3)O[C@@H]2COC(=O)CCC(C)=NO[C@H](C)c2cn([C@@H]3COC[C@H]3O)nn2)cc1 ... c1

Here's the next entry for you.
Field: class (z-score) — entry: CCOC(=O)[C@H](Cc1ccccc1)NC(=O)CCC1CC(OC(=O)NCc2ccc3c(c2)OCO3)CC2(CCCC(COC(=O)NCc3cccc(C(F)(F)F)c3)O2)O1 (stereo partly specified)
c1

----------
# test-details: small-molecule microarray binders of probe aLefty2, primary screen, biochemical, biotinylated probe, 635/667 nm fluorescence (AID 1094);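 also: score merges spot fluorescence near 667 nm with spot signal-to-noise ratio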
# assay-context: higher = more signal
Label satisfied for high-side composite z-score (at or above -0.04) and not satisfied for low-side composite z-score (below it).

Previously resolved entries follow.
COc1cccc([C@H]2Oc3ccc(OC)cc3C(=NOC(C)CN3CCCc4nc(C)c(C)cc43)[C@@H]2O)c1 (stereo not given in full) ... satisfied
O=C1[C@H]2[C@H]3[C@H](O)[C@H](O)CC(=NOC[C@@H](O)COCc4ccco4)[C@H]3CC[C@H]2C(=O)N1C1CCCCC1 ... not satisfied
CCc1cccc(NC(=O)O[C@H]2[C@H](OC(=O)Nc3ccc4c(c3)OCO4)[C@@H](OC(=O)Nc3ccc4c(c3)OCO4)[C@@H](OC)O[C@@H]2CO)c1 ... satisfied
O=C1CCCC=C1C(O)CCOCc1ccccc1 (stereo not given) ... not satisfied
CCN1C(=O)[C@H]2[C@H]3[C@H](O)[C@H](O)CC(=NO[C@@H]4O[C@H](CO)[C@@H](O)[C@H](O)[C@H]4O)[C@@H]3CC[C@H]2C1=O ... not satisfied

Here's the next entry for you.
Confirm if composite z-score reported for the compound `CC(C)=CCCC(C)=CCON=C1[C@H]2CCn3c(=O)n(C)c(=O)n3[C@H]2[C@H](O)[C@@H]2O[C@H]12` is -0.04 or above.
satisfied

----------
# test-details: osmotic lysis modulators in infected erythrocytes, primary screen, PSAC antagonist project, cell-based, P. falciparum Indochina, OD700, 3 h (AID 1156)
# assay-context: higher = more signal, called active from +8 up or from −8 down
For each of the molecules below, state its z-score.
One number for each entry.

COc1ccc([Si](C)(C)[C@@H]2[C@@H](CC(=O)N3CCC[C@H]3CO)O[C@]3(C(=O)N(Cc4cccc(N5CCC5=O)c4)c4ccccc43)[C@H]2C)cc1 ... -0.745
CC(CCN1CCc2nc(-c3ccccc3)c(-c3ccccc3)cc2C1)=NO[C@H](C)c1cn([C@@H]2COC[C@H]2O)nn1 ... 1.56
CCCNC(=O)[C@@H]1c2ccccc2C(=O)N(Cc2ccccc2Cl)[C@H]1c1ccc(CO)cc1 ... 0.621

API: the following record is the query input.
Item under review: `CC(C)CON=C1C[C@@H](O)[C@@H](O)[C@@H]2[C@@H]3C(=O)N(C[C@@H]4CCCO4)C(=O)[C@@H]3CC[C@H]12` . Reported z-score?
-0.425

----------
# target-of-assay: Torsin-1A (Homo sapiens) (UniProt O14656)
# Sequence (O14656 whole entry, looked up): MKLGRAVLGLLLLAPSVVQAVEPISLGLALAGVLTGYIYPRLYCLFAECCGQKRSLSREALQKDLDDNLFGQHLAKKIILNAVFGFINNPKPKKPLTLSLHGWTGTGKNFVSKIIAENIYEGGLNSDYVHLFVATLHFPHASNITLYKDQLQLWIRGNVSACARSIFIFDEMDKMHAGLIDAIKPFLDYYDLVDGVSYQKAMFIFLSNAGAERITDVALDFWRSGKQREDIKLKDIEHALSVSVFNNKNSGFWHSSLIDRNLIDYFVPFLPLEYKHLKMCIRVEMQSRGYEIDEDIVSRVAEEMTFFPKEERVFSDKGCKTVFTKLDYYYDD
# test-details: torsin A binders from cell lysate, primary screen, small-molecule microarray, wild-type, 635/667 nm (AID 1149)
# assay-context: COS7 hTOR1A-WT lysate, 635 nm fluorescence, higher = more signal
Binning of composite z-score into classes: bucket A: < 0.2; bucket B: ≥ 0.2 and < 0.6; bucket C: ≥ 0.6

Field: class (composite z-score) — entry: `C[C@@H]1C=CCC(=O)OC[C@H](C)C(=O)N[C@@H](C)C(=O)OC1`
bucket C

Field: class (composite z-score) — entry: COc1cccc([C@H]2Oc3ccc(OC)cc3C(=NOC(C)CN3CCCc4nc(C)c(C)cc43)[C@@H]2O)c1 (stereo partly drawn)
bucket B

Field: class (composite z-score) — entry: `CC(=O)OC[C@H]1O[C@H](CC=NOC[C@@H](C)[C@H](OCc2ccccc2)C(C)C)C=C[C@@H]1OC(C)=O`
bucket A

Field: class (composite z-score) — entry: `CO[C@@H]1COC(=O)CCC[C@@H](C)[C@H](OC)COC(=O)[C@H](Cc2ccccc2)NC(=O)CC=C[C@H]1C`
bucket C

Field: class (composite z-score) — entry: COC(=O)C1(C)C=C2C(=C(c3ccccc3)C(=O)C2C)CN1 (stereo not drawn)
bucket A

Field: class (composite z-score) — entry: `CC(CCC(=O)OC[C@H]1O[C@H](C#Cc2ccccc2)C=C[C@@H]1Oc1ccc(C)cc1)=NOC[C@@H](O)[C@H]1O[C@@H]2OC(C)(C)O[C@@H]2[C@H]1O`
bucket A

Field: class (composite z-score) — entry: `COCCOC(=O)N1C(=O)[C@@]2(c3cc(C#CC4(O)CCCCCC4)ccc31)[C@H](c1ccc(OCCO)cc1)N1[C@H](c3ccccc3)[C@H](c3ccccc3)OC(=O)[C@H]1[C@@H]2C(=O)NC[C@H](O)c1ccccc1`
bucket B

Field: class (composite z-score) — entry: `CCc1cccc(NC(=O)O[C@H]2[C@H](OC(=O)Nc3ccc4c(c3)OCO4)[C@@H](OC(=O)Nc3ccc4c(c3)OCO4)[C@@H](OC)O[C@@H]2CO)c1`
bucket C

Field: class (composite z-score) — entry: `CCCCCCc1nc(CCCc2cc3c(c(CCCCCC)n2)[Si](C(C)C)(C(C)C)O[C@H]3c2ccccc2)cc2c1[Si](C(C)C)(C(C)C)O[C@H]2c1ccccc1`
bucket A

Field: class (composite z-score) — entry: `CCN1C(=O)[C@H]2[C@H]3[C@H](O)[C@H](O)CC(=NO[C@@H]4O[C@H](CO)[C@@H](O)[C@H](O)[C@H]4O)[C@@H]3CC[C@H]2C1=O`
bucket C

Field: class (composite z-score) — entry: `C=CCOC(=O)[C@H]1[C@@H]2C(=O)O[C@@H](c3ccccc3)[C@@H](c3ccccc3)N2[C@@H](c2ccc(OCCOC(=O)[C@H]3C[C@H]4C(=O)N[C@@H](Cc5ccccc5)C(=O)N4[C@H]3c3ccc(O)cc3)cc2)[C@]12C(=O)Nc1ccccc12`
bucket B

----------
# test-details: binders from COS7 lysate, DM2A8 probe, primary screen, torsin A project, cell lysate, small-molecule microarray, fluorescence 635/667 (AID 1065)
# assay-context: higher = more signal, COS7 lysate expressing mutant human TOR1A
measurement-name: composite z-score
Answers are plain numbers.

Past entries and their recorded results:
CCCCCN1CC=CC23O[C@@H]4C=CCOC(=O)[C@@H]4[C@H]2C(=O)N(C(CO)C(C)C)[C@@H]3C1=O (stereo partly specified) ... -1.58
CCCNC(=O)[C@@H]1c2ccccc2C(=O)N(c2ccc(C)cn2)[C@H]1c1ccc(CO)cc1 ... 0.0211
CO[C@H]1O[C@H](CO)[C@@H](OC(=O)Nc2ccc3c(c2)OCO3)[C@H](OC(=O)Nc2ccccc2-c2ccccc2)[C@@H]1OC(=O)Nc1ccccc1-c1ccccc1 ... -0.029
CCCNC(=O)OC[C@H]1O[C@H](CCON=C2[C@H]3CCn4c(=O)n(-c5ccccc5)c(=O)n4[C@H]3[C@H](O)[C@@H]3O[C@H]23)C=C[C@@H]1Oc1ccc(OC)cc1 ... 0.447
C=CC[C@@H]1C=C[C@H](ON=C2c3cc(OC)ccc3O[C@H](c3cccc(OC)c3)[C@H]2O)[C@@H](CO)O1 ... 0.0359

Would you mind listing composite z-score for each of the following molecules?
1. NCCCCCNC(=O)[C@@H]1C[C@@H]2C(=O)N3CCC[C@H]3C(=O)N2[C@@H]1c1cccc(OCCO)c1
2. CC(C)(C)OC(=O)CC[C@]1(C(=O)NCc2ccccc2)N=C(c2ccc(OCCCO)cc2)O[C@H]1c1ccccc1

1. 2.1
2. 0.8
